- Target system: T1, recombinant full-length Tau protein, longest isoform (Tau 2N4R) (human, UniProt P10636-8 1-441, biotinylated with NHS-biotin for SPR; 15N-labelled for NMR)
- T1 construct: range 1-441; Expressed in E. coli from pET15b-Tau; also called biotinylated-Tau; 15N-Tau
- T1 sequence (P10636 other isoform, or with tags, fused parts or gaps limits assumed): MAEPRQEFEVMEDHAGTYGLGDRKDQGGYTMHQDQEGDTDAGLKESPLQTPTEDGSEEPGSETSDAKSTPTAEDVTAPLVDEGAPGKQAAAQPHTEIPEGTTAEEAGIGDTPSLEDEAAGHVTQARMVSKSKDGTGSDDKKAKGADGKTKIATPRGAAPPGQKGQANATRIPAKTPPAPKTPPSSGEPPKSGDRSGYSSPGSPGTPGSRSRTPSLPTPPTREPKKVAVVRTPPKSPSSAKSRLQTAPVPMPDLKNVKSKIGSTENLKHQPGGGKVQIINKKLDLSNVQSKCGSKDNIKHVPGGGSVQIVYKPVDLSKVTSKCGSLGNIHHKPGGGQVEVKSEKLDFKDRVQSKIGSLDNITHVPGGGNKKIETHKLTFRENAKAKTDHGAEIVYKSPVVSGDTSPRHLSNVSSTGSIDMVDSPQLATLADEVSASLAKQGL
- Test summary: SPR (Biacore T200), single-cycle kinetics, biotinylated Tau on streptavidin chip, VHH injected 0.125-2 µM
Overview of recorded kon for various binders
// return numeric value only (unit: M⁻¹ s⁻¹, not printed)

Binder	kon [M⁻¹ s⁻¹]
VHH Mut14 (VHH, Variant of Z70; also called VH Mut14) VHH: EVQLQASGGVFVQSGGSLRLSCAASGATSIFDGMGWFRQAPGKEREFVSAISYGQGSYTYYADSVKGRFTISRDNSKNMVYLQMNSLRAEDTATYYCAPAYEGDLYAFDSYGEQGTQVTVSS	18800

// query Quick one: kon for VHH Mut20 (VHH, Variant of Z70; also called VH Mut20) VHH: EVQLQASGGVFVQSGGSLRLSCAASGATSTFDGMGWFRQAPGKEKEFVSAISYEQGSYTYYADSVKGRFTISRDNSKNMVYLQMNSLRAEDTATYYCAPAYEGDLYAFDSYGEQGTQVTVSS ?
// result 21200

// query I'd like to know its kon. The binder in question is VHH Mut15 (VHH, Variant of Z70; also called VH Mut15) VHH: EVQLQASGGVFVQSGGSLRLSCAASGATSTFDGMGWFRQAPGKEREFVSAISYEQGSYTYYADSVKGRFTISRDNSKNMVYLQMNSLGAEDTATYYCASAYEGDLYAFDSYEGQGTQVTVSS
// result 21300

// query Fill in: kon of VHH Mut1 (VHH, Variant of Z70; also called VH Mut1) VHH: EVQLQASGGVFVQSGGSLRLSCAASGATSTFDGMGWFRQAPGKEREFVSAISYEQGSYTYYADSVKGRFTISRDNSKNMVYLQMNSLRAEDTATYYCAPAYEGDLYAFDSYGEQGTQVTVSS is ___
// result 107000

// query Using the record for VHH Z70 (VHH, E4-1 with G12V, P16S, T81M and W114G; It may be the form actually produced from pHEN2; also called single domain antibody Z70; optimized VHH Z70) VHH: EVQLQASGGVFVQSGGSLRLSCAASGATSTFDGMGWFRQAPGKEREFVSAISYEQGSYTYYADSVKGRFTISRDNSKNMVYLQMNSLRAEDTATYYCAPAYEGDLYAFDSYGGQGTQVTVSS , report its kon.
// result 18100

These data points were gathered from patent US20220017611A1.
